- system tested: topoisomerase Type I (Bos taurus, UniProt F1MN93)
- Sequence (F1MN93 1-767): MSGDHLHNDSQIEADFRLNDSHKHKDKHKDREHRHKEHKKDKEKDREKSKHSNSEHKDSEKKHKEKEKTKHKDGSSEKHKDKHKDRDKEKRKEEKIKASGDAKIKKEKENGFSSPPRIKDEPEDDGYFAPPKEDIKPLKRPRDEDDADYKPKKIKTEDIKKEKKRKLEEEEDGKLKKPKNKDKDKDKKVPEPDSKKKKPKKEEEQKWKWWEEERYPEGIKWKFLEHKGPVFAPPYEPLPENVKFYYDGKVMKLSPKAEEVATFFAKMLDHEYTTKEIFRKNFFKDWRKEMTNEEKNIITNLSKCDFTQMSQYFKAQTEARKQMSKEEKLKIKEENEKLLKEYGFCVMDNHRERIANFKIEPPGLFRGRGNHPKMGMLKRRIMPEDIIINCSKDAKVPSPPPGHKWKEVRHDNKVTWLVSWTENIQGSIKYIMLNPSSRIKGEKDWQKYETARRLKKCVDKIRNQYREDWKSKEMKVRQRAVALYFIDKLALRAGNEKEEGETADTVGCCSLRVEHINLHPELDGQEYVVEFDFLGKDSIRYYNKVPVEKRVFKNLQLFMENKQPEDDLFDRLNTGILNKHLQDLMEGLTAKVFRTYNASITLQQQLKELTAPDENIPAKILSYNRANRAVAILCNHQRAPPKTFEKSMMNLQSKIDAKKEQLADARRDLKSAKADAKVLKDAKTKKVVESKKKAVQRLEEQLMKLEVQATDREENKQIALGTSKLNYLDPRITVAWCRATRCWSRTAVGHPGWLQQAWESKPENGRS
- protocol description: Cleavable Complex in vitro Assay (topoisomerase Type I inhibitory activity)
- Assay type: biochemical
- conditions: read-out: Relative IC50 (concentration at which 50% of the DNA substrate has been captured by topoisomerase I); Cleavable Complex Assay
- Text: This assay performed according to the method described in Hsiang, Y. et al., J. Biol. Chem., 260:14873-14878 (1985), correlates well with in vivo anti-tumor activity of topoisomerase inhibitors in animal models of cancer, e.g., camptothecin and its analogs. See Hsiang et al., Cancer Research, 49:4385-4389 (1989) and Jaxel et al., Cancer Research, 49:1465-1469 (1989). […]
pIC50: −log10 of the molar value.
quantity kind: pIC50

Form field: reported pIC50 of CCC1(O)C(=O)OCc2c1cc1n(c2=O)Cc2c-1nc1cc3c(cc1c2CN(C)C)OCO3 (racemic) > 6.30

###

- system tested: topoisomerase Type I (Bos taurus, UniProt F1MN93)
- protocol description: Cleavable Complex in vitro Assay (topoisomerase Type I inhibitory activity)
- Type: biochemical
quantity kind: IC50

Quick one: IC50 for CCN(CC)Cc1c2c(nc3cc4c(cc13)OCCO4)-c1cc3c(c(=O)n1C2)COC(=O)C3(O)CC (racemic) ? 0.5 to 1 µM

Quick check: IC50 of CC[C@@]1(O)C(=O)OCc2c1cc1n(c2=O)Cc2c-1nc1cc3c(cc1c2CN1CCOCC1)OCCO3 ? < 0.5 µM

Any idea what its IC50 is? The molecule is CC[C@@]1(O)C(=O)OCc2c1cc1n(c2=O)Cc2c-1nc1cc3c(cc1c2CN(C)C)OCCO3 0.5 to 1 µM

Give the measured IC50 of CCC1(O)C(=O)OCc2c1cc1n(c2=O)Cc2c-1nc1cc3c(cc1c2CN1CCOCC1)OCCO3 (racemic) . < 0.5 µM

Can you share its IC50? I mean this molecule: CCC1(O)C(=O)OCc2c1cc1n(c2=O)Cc2c-1nc1cc3c(cc1c2CN(CCO)CCO)OCCO3 (racemic) < 0.5 µM

Could you share which IC50 value was measured for CCC1(O)C(=O)OCc2c1cc1n(c2=O)Cc2c-1nc1cc3c(cc1c2CN(C)CCO)OCO3 (racemic) ? 1 to 2 µM

IC50 for CCC1(O)C(=O)OCc2c1cc1n(c2=O)Cc2c-1nc1cc3c(cc1c2CN1CCC1)OCO3 (racemic) ? 1 to 2 µM

Item CCC1(O)C(=O)OCc2c1cc1n(c2=O)Cc2c-1nc1cc3c(cc1c2CN(C)CCO)OCCO3 (racemic) has what recorded IC50? 1 to 2 µM

Entry CCC1(O)C(=O)OCc2c1cc1n(c2=O)Cc2c-1nc1cc3c(cc1c2CN1CCCCC1)OCO3 (racemic) : reported IC50 = ? > 2 µM

What value of IC50 has been reported for the following molecule? CC[C@@]1(O)C(=O)OCc2c1cc1n(c2=O)Cc2c-1nc1cc3c(cc1c2CN(C)C)OCO3 < 0.5 µM

Record request: IC50 value, item CCC1(O)C(=O)OCc2c1cc1n(c2=O)Cc2c-1nc1cc3c(cc1c2CN1CCCCC1)OCCO3 (racemic) 0.5 to 1 µM

I would be grateful if you could share the reported IC50 for CCC1(O)C(=O)OCc2c1cc1n(c2=O)Cc2c-1nc1cc3c(cc1c2CN1CCCC1)OCCO3 (racemic) . 1 to 2 µM
